# PROCEDURE SUMMARY: ChromLogD pH7.4 (chromatographic hydrophobicity index), PFI, LLE
# EXPERIMENTAL SETUP: pH 7.4
Give measured chromatographic logD for each item. Keep answers brief.
One number for each entry.

MOLECULE: Cc1ccc(NC(=O)NC2CNc3ccccc3N(c3ccccc3)C2=O)cc1 (centres unmarked)
chromatographic logD: 5.4
--
MOLECULE: COc1ccc(CN2C(=O)C(N)C(=O)N(CC3CC(F)(F)C3)c3ccccc32)cc1 (centres unmarked)
chromatographic logD: 4.2
--
MOLECULE: Cc1ccc(NC(=O)NC2C(=O)Nc3ccccc3N(C(C)C)C2=O)cc1 (centres unmarked)
chromatographic logD: 4.2

Batch request: chromatographic logD per item, same order as input.
1. COc1cccc(N2C(=O)C(NC(=O)Nc3ccc(C)cc3)C(=O)Nc3ccccc32)c1 (centres unmarked)
2. COc1ccc(N2C(=O)C(NC(=O)Nc3ccc(C)cc3)C(=O)Nc3ccccc32)cc1 (centres unmarked)
3. COc1ccc(NC(=O)NC2C(=O)Nc3cccc(F)c3N(c3ccccc3)C2=O)cc1 (centres unmarked)
4. Cc1ccc(NC(=O)NC2COc3ccccc3N(c3ccccc3)C2=O)cc1 (centres unmarked)

### Response
4.8
4.8
4.2
6.1

Could you report chromatographic logD for every entry in the following list?
1. COc1ccc(CN2C(=O)C(N)C(=O)N(c3ccc(OC)cc3)c3ccccc32)cc1 (centres unmarked)
2. COc1ccccc1N1C(=O)C(NC(=O)Nc2ccc(C)cc2)C(=O)Nc2ccccc21 (centres unmarked)
3. Cc1ccc(NC(=O)NC2C(=O)Nc3ccccc3N(c3ccccc3)C2=O)cc1 (centres unmarked)

### Response
1. 4.2
2. 4.7
3. 4.6

Look at each molecule and report its chromatographic logD.
1. CC(C)N(C(=O)CN1C(=O)C(N)C(=O)N(c2ccccc2)c2ccccc21)c1ccccc1 (racemic)
2. Cc1ccc(NC(=O)NC2C(=O)Nc3ccccc3N(C3CCOCC3)C2=O)cc1 (centres unmarked)
3. COc1ccc(CN2C(=O)C(N)C(=O)N(c3ccccc3)c3c(F)cccc32)cc1 (centres unmarked)
4. Cc1ccc(NC(=O)NC2CN(c3ccccc3)c3ccccc3NC2=O)cc1 (centres unmarked)

### Response
1: 5; 2: 3.5; 3: 4.3; 4: 5.7

Provide chromatographic logD for all items below, preserving their order.
1. COc1ccc(CN2C(=O)C(N)C(=O)N(c3ccccc3)c3ccccc32)cc1 (centres unmarked)
2. COc1ccc(CN2C(=O)C(N)C(=O)N(C3CC3)c3ccccc32)cc1 (centres unmarked)

### Response
1: 4.1; 2: 3.2

### Prompt What value of chromatographic logD has been reported for the following molecule? COc1ccc(CN2C(=O)CC(=O)N(c3ccc(OC)cc3)c3ccccc32)cc1
### Response 5.1
